Experiment: solvent given as SMILES
Details: in CS(C)=O
ENDPOINT_NAME: emission maximum (nm)
Give just the number in nm; leave the unit off.

O=C1/C(=C2\Sc3ccc(S(=O)(=O)Nc4ccccc4)cc3C2=O)Sc2ccc(S(=O)(=O)Nc3ccccc3)cc21: 627

stdin: Fill blank: measured emission maximum of the compound "Cc1cccc(-c2nc3sc4ccccc4c3s2)c1" is ____.
stdout: 412

stdin: Fill blank: measured emission maximum of the compound "CN(C)c1ccc(-c2ccc3n2[B-](F)(F)[N+]2=C(c4ccccc4)C=CC2=C3C(F)(F)F)cc1" is ____.
stdout: 800

stdin: Fill blank: measured emission maximum of the compound "CC(=O)c1c2c(cc3c(N(C)C)cccc13)CCC2" is ____.
stdout: 598

stdin: Fill blank: measured emission maximum of the compound "Cc1ccc(NC(=O)c2sc(Br)nc2C)cc1" is ____.
stdout: 401.5

stdin: Fill blank: measured emission maximum of the compound "Oc1ccccc1/N=C/c1ccccc1Oc1ccccc1" is ____.
stdout: 410

stdin: Fill blank: measured emission maximum of the compound "c1ccc(-c2nc3sc4ccccc4c3s2)cc1" is ____.
stdout: 412

stdin: Fill blank: measured emission maximum of the compound COC(=O)C(Cc1ccc2oc(-c3ccc(N(c4ccccc4)c4ccccc4)cc3)nc2c1)NC(=O)OC(C)(C)C (stereo not given) is ____.
stdout: 474.5

stdin: Fill blank: measured emission maximum of the compound "Fc1ccc2c(c1)sc1nc(-c3ccccc3)sc12" is ____.
stdout: 407

stdin: Fill blank: measured emission maximum of the compound "CN1/C(=C/C=C(/C=C/C2=[N+](C)c3ccccc3C2(C)C)c2ccc(F)cc2)C(C)(C)c2ccccc21" is ____.
stdout: 669

====

Experiment: solvent given as SMILES
Settings: in C1CCOC1
ENDPOINT_NAME: emission maximum (nm)
Give just the number in nm; leave the unit off.

// worked examples, emission maximum included
COC(=O)C1(C(=O)OC)Cc2c(C#Cc3ccc(OC)cc3)c(-c3ccc(OC)cc3)c3c(-c4ccccc4)c(-c4ccccc4)c(-c4ccccc4)c(-c4ccccc4)c3c2C1: 421.77
CC(C)(C)c1ccc(C2=C(c3ccc(C(C)(C)C)cc3)[Si](c3ccccc3)(c3ccccc3)c3ccccc32)cc1: 447
C1=Cc2ccccc2C(=Cc2ccc(-c3ccc(C=C4c5ccccc5C=Cc5ccccc54)cc3)cc2)c2ccccc21: 405

stdin: Fill blank: measured emission maximum of the compound O=P1(c2ccccc2)C(c2cc(C(F)(F)F)cc(C(F)(F)F)c2)=Cc2c3ccc4cccc5ccc(c6cc(-c7ccccc7)n1c26)c3c45 (centres undefined) is ____.
stdout: 521

====

Assay: solvent given as SMILES
Conditions: in ClC(Cl)Cl
ENDPOINT_NAME: emission maximum (nm)
Give just the number in nm; leave the unit off.

CCCCCC(CC)C1(C(CC)CCCCC)c2ccccc2-c2ccc(C#Cc3cc(C#Cc4ccc5c(c4)C(C(CC)CCCCC)(C(CC)CCCCC)c4ccccc4-5)c4ccc5c(C#Cc6ccc7c(c6)C(C(CC)CCCCC)(C(CC)CCCCC)c6ccccc6-7)cc(C#Cc6ccc7c(c6)C(C(CC)CCCCC)(C(CC)CCCCC)c6ccccc6-7)c6ccc3c4c65)cc21 (stereo not drawn): 514

stdin: Fill blank: measured emission maximum of the compound "CCN(CC)c1ccc2ccc(=O)oc2c1" is ____.
stdout: 435

stdin: Fill blank: measured emission maximum of the compound "F[B-]1(F)OC(c2ccccc2)=Cc2c3ccccc3c3ccccc3[n+]21" is ____.
stdout: 447

stdin: Fill blank: measured emission maximum of the compound "CCN(CC)c1ccc(/C=C/c2cc(/C=C/c3ccc(N(CC)CC)cc3)nc(N)n2)cc1" is ____.
stdout: 518

stdin: Fill blank: measured emission maximum of the compound "N#Cc1nc(N(Cc2ccccc2Cl)Cc2ccccc2Cl)c(C#N)nc1N(Cc1ccccc1Cl)Cc1ccccc1Cl" is ____.
stdout: 567

stdin: Fill blank: measured emission maximum of the compound "CCOC(=O)/C(C#N)=C\c1ccc2c(c1)c1ccccc1n2-c1ccc(OC)cc1" is ____.
stdout: 486

stdin: Fill blank: measured emission maximum of the compound "CCC1=C(C)C2=Cc3ccccc3B(O)N2C1=O" is ____.
stdout: 418

stdin: Fill blank: measured emission maximum of the compound "O=C(O)c1c2ccccc2nc2ccccc12" is ____.
stdout: 436
